Ref: the supplement of paper PMC11061612

Please respond with reported Bliss excess for every item in the list.
Test system: PA-TU-8988T (Pancreatic Carcinoma);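 further: after 72 h of two-drug dosing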
Assay: Bliss excess, mean over the matrix (fraction); higher = more synergy
Give bare numbers.

# count of solved cases: 5
INSERT INTO results (molecule, endpoint_label, data_value) VALUES
  ('CS(=O)(=O)CCNCc1ccc(-c2ccc3ncnc(Nc4ccc(OCc5cccc(F)c5)c(Cl)c4)c3c2)o1 [Lapatinib] + C[C@@H](Oc1cc(-c2cnn(C3CCNCC3)c2)cnc1N)c1c(Cl)ccc(F)c1Cl [Crizotinib] (first compound max 10 µM, 7x7, partner max 10 µM)', 'Bliss excess', -0.0244),
  ('CN(CCO)CC[C@H](CSc1ccccc1)Nc1ccc(S(=O)(=O)NC(=O)c2ccc(N3CCC([C@@H](O)c4ccccc4-c4ccc(Cl)cc4)CC3)cc2)cc1S(=O)(=O)C(F)(F)F [AZD4320] + Cn1cnc2c(F)c(Nc3ccc(Br)cc3Cl)c(C(=O)NOCCO)cc21 [Selumetinib] (first compound max 1 µM, 7x7, partner max 3 µM)', 'Bliss excess', 0.0561),
  ('CC1(C)CCC(CN2CCN(c3ccc(C(=O)NS(=O)(=O)c4ccc(NCC5CCOCC5)c([N+](=O)[O-])c4)c(Oc4cnc5[nH]ccc5c4)c3)CC2)=C(c2ccc(Cl)cc2)C1 [Venetoclax] + CCN(CCO)CCCOc1ccc2c(Nc3cc(CC(=O)Nc4cccc(F)c4)[nH]n3)ncnc2c1 [AZD2811] (first compound max 1 µM, 7x7, partner max 1 µM)', 'Bliss excess', -0.0549),
  ('COc1cccc(OCCCN)c1-c1cc(Nc2cnc(C#N)cn2)n[nH]1 [Prexasertib] + Cc1cc2ncnn2cc1Nc1ncc2c(n1)n(C1CCOCC1)c(=O)n2C [AZD7648] (first compound max 1 µM, 7x7, partner max 10 µM)', 'Bliss excess', 0.0389),
  ('Cc1c2c(nn1C)CSCc1cc(n(C)n1)CSc1cc(c3ccccc3c1)OCCCc1c(C(=O)O)n(C)c3c-2c(Cl)ccc13 [AZD5991] + C1CN(CCC1(C(=O)N[C@@H](CCO)C2=CC=C(C=C2)Cl)N)C3=NC=NC4=C3C=CN4 [Capivasertib] (first compound max 1 µM, 7x7, partner max 3 µM)', 'Bliss excess', -0.01);

Please look at the items below and tell me Bliss excess for each one, in order.
1. CC(=O)c1c(C)c2cnc(Nc3ccc(N4CCNCC4)cn3)nc2n(C2CCCC2)c1=O [Palbociclib] + CN(CC[C@H](CSC1=CC=CC=C1)NC2=C(C=C(C=C2)S(=O)(=O)NC(=O)C3=CC=C(C=C3)N4CCC(CC4)[C@H](C5=CC=CC=C5C6=CC=C(C=C6)Cl)O)S(=O)(=O)C(F)(F)F)CCO [AZD4320] (first compound max 10 µM, 7x7, partner max 1 µM)
2. Cc1nc(Nc2ncc(C(=O)Nc3c(C)cccc3Cl)s2)cc(N2CCN(CCO)CC2)n1 [Dasatinib] + CC(=O)Nc1cccc(-n2c(=O)n(C3CC3)c(=O)c3c(Nc4ccc(I)cc4F)n(C)c(=O)c(C)c32)c1 [Trametinib] (first compound max 2 µM, 7x7, partner max 1 µM)
3. COc1cccc(OCCCN)c1-c1cc(Nc2cnc(C#N)cn2)n[nH]1 [Prexasertib] + C=CCn1c(=O)c2cnc(Nc3ccc(N4CCN(C)CC4)cc3)nc2n1-c1cccc(C(C)(C)O)n1 [AZD1775] (first compound max 1 µM, partner max 1 µM)
4. CC1(C)CCC(CN2CCN(c3ccc(C(=O)NS(=O)(=O)c4ccc(NCC5CCOCC5)c([N+](=O)[O-])c4)c(Oc4cnc5[nH]ccc5c4)c3)CC2)=C(c2ccc(Cl)cc2)C1 [Venetoclax] + C[C@@H](Nc1cc(F)cc(F)c1)c1cc(C(=O)N(C)C)cc2c(=O)cc(N3CCOCC3)oc12 [AZD8186] (first compound max 1 µM, 7x7, partner max 3 µM)
5. CN(CCO)CC[C@H](CSc1ccccc1)Nc1ccc(S(=O)(=O)NC(=O)c2ccc(N3CCC([C@@H](O)c4ccccc4-c4ccc(Cl)cc4)CC3)cc2)cc1S(=O)(=O)C(F)(F)F [AZD4320] + C1CN(CCC1(C(=O)N[C@@H](CCO)C2=CC=C(C=C2)Cl)N)C3=NC=NC4=C3C=CN4 [Capivasertib] (first compound max 1 µM, 7x7, partner max 3 µM)
6. CN(CCO)CC[C@H](CSc1ccccc1)Nc1ccc(S(=O)(=O)NC(=O)c2ccc(N3CCC([C@@H](O)c4ccccc4-c4ccc(Cl)cc4)CC3)cc2)cc1S(=O)(=O)C(F)(F)F [AZD4320] + C[C@@H]1COCCN1C2=NC(=NC(=C2)C3(CC3)[S@](=N)(=O)C)C4=C5C=CNC5=NC=C4 [AZD6738] (first compound max 1 µM, 7x7, partner max 10 µM)
7. COc1cccc2c1C(=O)c1c(O)c3c(c(O)c1C2=O)C[C@@](O)(C(=O)CO)C[C@@H]3O[C@H]1C[C@H](N)[C@H](O)[C@H](C)O1 [Doxorubicin] + Cc1cc2ncnn2cc1Nc1ncc2c(n1)n(C1CCOCC1)c(=O)n2C [AZD7648] (first compound max 1 µM, 7x7, partner max 10 µM)

-0.0213
0.136
0.227
0.0383
-0.0315
-0.0006
0.0582
